Tested on: mice
Test: Acute toxicity
Format: in vivo
Conditions: oral, maximum dose which did not cause mortality
Counter-ions that a name gives are not always drawn.
Kindly state DL0 for each of the entries shown.
Record the value in mg/kg, omitting the unit from your answer.

input: May I ask what DL0 has been recorded for CN1CCO[C@@H]2c3cccc4[nH]cc(c34)CC[C@H]21 (relative stereo) [Example 2, hydrochloride] ?
output: 100

input: Reported DL0, compound CCCN1CCO[C@@H]2c3cccc4[nH]cc(c34)CC[C@H]21 (relative stereo) [Example 3, hydrochloride] : ____
output: 100

input: Data request, read-out DL0, for CCCN1CCO[C@@H]2c3cccc4c3c(cn4C)CC[C@H]21 (relative stereo) [Example 5, hydrochloride]
output: 200

input: Return reported DL0; argument: c1cc2c3c(c[nH]c3c1)CC[C@H]1NCCO[C@H]21 (relative stereo) [Example 1, hydrochloride]
output: 200

* * *

Target: dopaminergic receptors (Rattus norvegicus, UniProt P61169)
Construct: from tissue; host or cells: rat striatum (striated bodies), crude membrane preparation
Sequence (P61169 whole entry): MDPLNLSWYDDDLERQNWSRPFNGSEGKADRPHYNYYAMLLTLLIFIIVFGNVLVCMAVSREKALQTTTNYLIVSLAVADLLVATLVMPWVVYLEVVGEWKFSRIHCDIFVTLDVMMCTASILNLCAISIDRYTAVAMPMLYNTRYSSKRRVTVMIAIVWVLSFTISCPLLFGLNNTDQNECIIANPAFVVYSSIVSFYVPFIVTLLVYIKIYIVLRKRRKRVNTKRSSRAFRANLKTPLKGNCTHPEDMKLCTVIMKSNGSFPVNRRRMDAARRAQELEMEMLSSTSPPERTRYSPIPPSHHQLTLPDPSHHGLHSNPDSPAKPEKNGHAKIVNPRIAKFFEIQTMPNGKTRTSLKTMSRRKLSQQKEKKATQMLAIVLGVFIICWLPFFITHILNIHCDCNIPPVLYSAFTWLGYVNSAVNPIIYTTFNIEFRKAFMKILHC
Test: Affinity for dopaminergic receptors (inhibition of spiroperidol 3H fixation)
Assay type: binding
Details: spiroperidol 3H, rat striated bodies, 37° C., pH 7.3, 20 minutes; read-out: 50% inhibiting concentration
Counter-ions that a name gives are not always drawn.
Please go through the items and note down their IC50.
# number only, unit nM dropped from output

input: Endpoint output: IC50 of c1cc2c3c(c[nH]c3c1)CC[C@H]1NCCO[C@H]21 (relative stereo) [Example 1, hydrochloride] . Value?
output: 10000

input: // lookup IC50 for CN1CCO[C@@H]2c3cccc4[nH]cc(c34)CC[C@H]21 (relative stereo) [Example 2, hydrochloride]
output: 950

input: Which IC50 is reported for this compound? CCCN1CCO[C@@H]2c3cccc4[nH]cc(c34)CC[C@H]21 (relative stereo) [Example 3, hydrochloride]
output: 270
